B1: glmS ribozyme (parent)
chain: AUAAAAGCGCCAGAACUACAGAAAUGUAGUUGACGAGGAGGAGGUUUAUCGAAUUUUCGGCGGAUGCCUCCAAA

variants of: B1; assay: self-cleavage kobs at 640 uM GlcN6P; higher = faster cleavage; RNA array; settings: with glucosamine-6-phosphate
Variants at the floor of the assay were thinned out.
Kindly supply the reported self-cleavage kobs at 640 uM GlcN6P values for the records listed here.
Answer in s⁻¹, number only, no unit symbol.

Please report the measured self-cleavage kobs at 640 uM GlcN6P for C16A U69G 7.48e-05

Supply reported self-cleavage kobs at 640 uM GlcN6P belonging to this variant: G13C A53G 2.97e-05

Determine from records and report self-cleavage kobs at 640 uM GlcN6P for U65G C67G 0.000419

Supply reported self-cleavage kobs at 640 uM GlcN6P belonging to this variant: A14U A15U 0.000602

Tell me self-cleavage kobs at 640 uM GlcN6P reported for C11U U54A 0.000876

Given the variant A15U C67A , write its reported self-cleavage kobs at 640 uM GlcN6P. 0.000447

Supply measured self-cleavage kobs at 640 uM GlcN6P of G32U G40C in your reply. 2.66e-05

Please give measured self-cleavage kobs at 640 uM GlcN6P of the following entry: U31G U46A 0.000258

Note self-cleavage kobs at 640 uM GlcN6P for the variant shown: A6U C67A 6.68e-05

Provide one value: measured self-cleavage kobs at 640 uM GlcN6P of A12G G41U 4.77e-05

Read off the recorded self-cleavage kobs at 640 uM GlcN6P for A6G A15G A42G 0.000137
